# Test system: S. aureus ATCC 25923
# Measurement Protocol: MIC, twofold microdilution, standard strain
# Format: cell-based
# Conditions Used: Staphylococcus aureus, ATCC25923, 18 h
Below, each entry is listed alongside its reported MIC.
Hi! Could you send only the number? It should be in µg/mL, unit omitted.

compound="C=CC(=O)N1CCN(c2cc3c(cc2F)c(=O)c(C(=O)O)cn3C2CC2)CC1 [Compound 1]" numeric_value=0.05
compound="O=C(O)c1cn(C2CC2)c2cc(N3CCN(CCCC(=O)N4CCN(c5cc6c(cc5F)c(=O)c(C(=O)O)cn6C5CC5)CC4)CC3)c(F)cc2c1=O [Compound 18, CP–Butyryl–CP Dimer]" numeric_value=4
compound="O=C(O)c1cn(C2CC2)c2cc(N3CCN(C(=O)CCC(F)(F)F)CC3)c(F)cc2c1=O [Compound 15]" numeric_value=0.2
compound="O=C(O)c1cn(C2CC2)c2cc(N3CCN(C(=O)CC(F)(F)F)CC3)c(F)cc2c1=O [Compound 14]" numeric_value=0.4
compound="O=C(O)c1cn(C2CC2)c2cc(N3CCN(CCCCC(=O)N4CCN(c5cc6c(cc5F)c(=O)c(C(=O)O)cn6C5CC5)CC4)CC3)c(F)cc2c1=O [Compound 19, CP–Pentanoyl–CP Dimer]" numeric_value=0.8
compound="O=C(O)c1cn(C2CC2)c2cc(N3CCN(C(=O)CCCl)CC3)c(F)cc2c1=O [Compound 4]" numeric_value=0.4

Ask: Any idea what its MIC is? The compound is O=C(O)c1cn(C2CC2)c2cc(N3CCN(C(=O)CCCCCCCCCCBr)CC3)c(F)cc2c1=O [Compound 13]
Reply: 12.8

Ask: # query: MIC of entry O=C(O)c1cn(C2CC2)c2cc(N3CCN(CCCCCCCCCCC(=O)N4CCN(c5cc6c(cc5F)c(=O)c(C(=O)O)cn6C5CC5)CC4)CC3)c(F)cc2c1=O [Compound 21, CP–Undecanoyl–CP Dimer]
Reply: 12.8

Ask: Quick check: MIC of O=C(O)c1cn(C2CC2)c2cc(N3CCN(CC(=O)N4CCN(c5cc6c(cc5F)c(=O)c(C(=O)O)cn6C5CC5)CC4)CC3)c(F)cc2c1=O [Compound 17, CP–Acetyl–CP Dimer] ?
Reply: 1.6

* * *

Measured MIC accompanies every entry in the list below.
# Test system: S. aureus ATCC 25923
# Measurement Protocol: MIC, twofold microdilution, standard strain
# Format: cell-based
# Conditions Used: Staphylococcus aureus, ATCC25923, 18 h
Express the result in µg/mL but write the number alone.

Answered cases to consult:
input_smiles=O=C(O)c1cn(C2CC2)c2cc(N3CCN(C(=O)CCCCl)CC3)c(F)cc2c1=O property_name=MIC numeric_value=0.8
input_smiles=O=C(O)c1cn(C2CC2)c2cc(N3CCN(C(=O)CCCCBr)CC3)c(F)cc2c1=O property_name=MIC numeric_value=0.4
input_smiles=O=C(O)c1cn(C2CC2)c2cc(N3CCN(C(=O)CCCC(F)(F)F)CC3)c(F)cc2c1=O property_name=MIC numeric_value=0.2
input_smiles=O=C(O)c1cn(C2CC2)c2cc(N3CCN(C(=O)CCCBr)CC3)c(F)cc2c1=O property_name=MIC numeric_value=0.4

Ask: Find the recorded MIC belonging to `O=C(O)c1cn(C2CC2)c2cc(N3CCN(C(=O)CBr)CC3)c(F)cc2c1=O` and report it.
Reply: 0.2

Ask: Given the entry `O=C(O)c1cn(C2CC2)c2cc(N3CCN(C(=O)CCl)CC3)c(F)cc2c1=O` , report its measured MIC.
Reply: 0.2

Ask: // returns reported MIC for input `O=C(O)c1cn(C2CC2)c2cc(N3CCN(CCCCCC(=O)N4CCN(c5cc6c(cc5F)c(=O)c(C(=O)O)cn6C5CC5)CC4)CC3)c(F)cc2c1=O`
Reply: 1.6
